Tested on: CD2F1 mice, L1210 leukemia ip, survival T/C
Assay: NCI In Vivo Anticancer Drug Screen. Data for tumor model L1210 Leukemia (intraperitoneal) in CD2F1 (CDF1) mice
Conditions: endpoint: mean survival time; dose: 12.5 mg/kg/injection; schedule: Q01DX009 (ip); vehicle: other; higher = longer survival
Toxic doses and inconclusive results are not listed.
property.measured: T/C

1. C=C(N=[N+]=[N-])c1ccccc1 | 110 % of control
2. Cc1cccc(C)c1N=NN(C)C | 90 % of control
3. CSc1nccc2ccccc12 | 106 % of control
4. CCCCCCCCCCCCSC1=CC(=O)C(OC)=C(OC)C1=O | 95 % of control
5. O=C(NNC(=O)C(F)(F)F)c1ccccc1 | 92 % of control

---

Test system: CD2F1 mice, L1210 leukemia ip, survival T/C
Assay: NCI In Vivo Anticancer Drug Screen. Data for tumor model L1210 Leukemia (intraperitoneal) in CD2F1 (CDF1) mice
Conditions: endpoint: mean survival time; dose: 100.0 mg/kg/injection; schedule: Q04DX003 (ip); vehicle: saline sonified; higher = longer survival
Inconclusive results and toxic doses are left out. Residues, ends and D or L forms follow the SMILES beside them. *: point of attachment. Cbz = O=C(OCc1ccccc1)*; OtBu = CC(C)(C)O*
Recorded measurements of T/C, one per entry
property.measured: T/C

1. O=[N+]([O-])c1ccc(N/N=C(\CI)c2ccccc2)c([N+](=O)[O-])c1 | 97 % of control
2. CCC(C)C(NC(=O)OCc1ccccc1)C(=O)NC(C(=O)NC(CCC(=O)OC(C)(C)C)C(=O)OC)C(C)C (stereo not drawn) (Cbz-Ile-Val-Glu(OtBu)-OMe; configuration not given here) | 88 % of control
3. COc1ccc(CC(=O)O)cc1OC (tested in a mixture with another compound) | 101 % of control
4. CC(=O)C1CC2c3ccccc3C1c1ccccc12 (centres undefined) | 100 % of control

---

System: CD2F1 mice, L1210 leukemia ip, survival T/C
Assay: NCI In Vivo Anticancer Drug Screen. Data for tumor model L1210 Leukemia (intraperitoneal) in CD2F1 (CDF1) mice
Conditions: endpoint: mean survival time; dose: 200.0 mg/kg/injection; schedule: Q01DX001 (ip); vehicle: saline; higher = longer survival
Inconclusive results and toxic doses are left out.
property.measured: T/C

1) Nc1ncnc2c1ncn2CCC(CO)CO | 102 % of control
2) CC(=O)Oc1cccc2c1C(=O)c1c(OC(C)=O)cc(C)cc1C2=O | 101 % of control
3) O=C(Nc1ccc(Oc2ccccc2)cc1)c1ccc(C(=O)Nc2ccc(Oc3ccccc3)cc2)cc1 | 92 % of control
4) O=C1c2ccccc2C(=O)c2cc(N3C(=O)C=CC3=O)ccc21 | 96 % of control
5) CCOC(=O)C(Cc1ccccc1)P(=O)(OCC)OCC (centres undefined) | 108 % of control
6) C=C(Br)C(=O)O | 98 % of control
7) COc1cc2c(cc1OC)C(Cc1ccccc1NC(=O)c1ccc(C(=O)Nc3ccccc3CC3c4cc(OC)c(OC)cc4CCN3C)cc1)N(C)CC2 (centres undefined) | 94 % of control
8) CC(=O)c1cc(O)ccc1O | 98 % of control
9) O=C(O)C(O)C(O)C1[O][Sb][O]C1CO (centres undefined) | 98 % of control
